B1: Azoarcus group I ribozyme (parent)
chain: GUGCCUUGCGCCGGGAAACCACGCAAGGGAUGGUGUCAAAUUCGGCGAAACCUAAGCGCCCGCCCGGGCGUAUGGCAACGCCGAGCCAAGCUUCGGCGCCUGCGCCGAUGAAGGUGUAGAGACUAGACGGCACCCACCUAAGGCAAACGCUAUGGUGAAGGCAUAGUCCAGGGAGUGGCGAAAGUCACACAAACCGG

Variants of: B1
Assay: reverse-splicing fitness (ratio to wild type); higher = more active; in vitro selection; Mg2+ level not given
Decide by reverse-splicing fitness: equal to or exceeding 0.01 means y, less means n.

>>> qualitative_label("C82A A120C C150U C169A")
"y"
>>> qualitative_label("C82U A111G A145G C150U C169U U176C")
"y"

reverse-splicing fitness >= 0.01 for A111G C150G C169G U176G ? n

# bool: reverse-splicing fitness of C82A A111U A120G A145U C150A C169G U176G >= 0.01 n

State whether the measured reverse-splicing fitness reaches 0.01, counting equality as reaching it, for C82U A111G A145C C150G y
